testDetails: Nonspecific cytotoxicity, CytoTox 96 assay
Format: cell-based, canine
conditionNotes: dog, MDCK cells
property: CC50 at 24 h (µM)
Give just the number in µM; leave the unit off.

// lookup CC50 at 24 h for O=c1c(O[C@@H]2O[C@H](CO)[C@@H](O)[C@H](O)[C@H]2O)c(-c2ccc(O)c(O)c2)oc2cc(O)cc(O)c12
45.5

// lookup CC50 at 24 h for C/C1=C/[C@H](O)C(C)(C)CCC/C(C)=C/C[C@H]1OC(=O)c1ccc(O)cc1
13.2

// lookup CC50 at 24 h for CC(=O)Oc1ccccc1C(=O)Nc1ncc([N+](=O)[O-])s1 [NTZ, nitazoxanide]
12.8

====

Reported PDI1 activity relative to mock is given for each of the following molecules.
assaySystem: PDI1 enzyme (Homo sapiens)
Sequence (P07237 18-508): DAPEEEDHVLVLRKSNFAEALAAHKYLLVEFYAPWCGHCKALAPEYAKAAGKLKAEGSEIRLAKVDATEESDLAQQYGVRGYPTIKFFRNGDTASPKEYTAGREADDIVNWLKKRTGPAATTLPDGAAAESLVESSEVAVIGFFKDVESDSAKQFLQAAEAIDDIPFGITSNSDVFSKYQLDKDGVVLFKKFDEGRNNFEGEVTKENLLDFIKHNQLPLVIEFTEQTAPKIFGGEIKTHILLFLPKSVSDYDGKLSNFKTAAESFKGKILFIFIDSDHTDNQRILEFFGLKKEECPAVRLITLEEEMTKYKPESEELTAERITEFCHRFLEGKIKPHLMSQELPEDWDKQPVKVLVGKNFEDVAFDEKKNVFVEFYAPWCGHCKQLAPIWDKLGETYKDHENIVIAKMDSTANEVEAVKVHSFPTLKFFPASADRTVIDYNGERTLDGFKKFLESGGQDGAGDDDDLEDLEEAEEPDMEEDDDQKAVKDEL
testDetails: ProteoStat PDI assay
Format: biochemical
conditionNotes: compound at 50 µM; mock = 100; SD in parentheses
Marks after values point to notes of the source that are not given here. Bridge positions count the residues as written; N and C are the ends. Square brackets hold non-standard residues; d marks the D form. Peptide text beside a SMILES is read from it. * marks the point of attachment. Ileψ(thiazoline)Cys = CC[C@H](C)[C@H](N)C1=N[C@H](C(=O)*)CS1; dOrn = NCCC[C@@H](N)C(=O)O

Reference set (3 entries):
// lookup PDI1 activity relative to mock for COC1=C2C[C@@H](C)C[C@H](OC)[C@H](O)[C@@H](C)/C=C(\C)[C@H](OC(N)=O)[C@@H](OC)/C=C\C=C(/C)C(=O)NC(=CC1=O)C2=O [GDA, geldanamycin]
96 (2) %

// lookup PDI1 activity relative to mock for COC(=O)C1(C)c2[nH]c3ccccc3c2CCN1C(=O)CCl (stereo not drawn) [16F16]
59 (6) ^* %

// lookup PDI1 activity relative to mock for CCOC(=O)C1=C[C@@H](OC(CC)CC)[C@H](NC(C)=O)[C@@H](N)C1 [Oseltamivir, oseltamivir phosphate]
95 (5) %

---
// lookup PDI1 activity relative to mock for NC12CC3CC(CC(C3)C1)C2 [Amantidine, amantadine]
103 (4) %

// lookup PDI1 activity relative to mock for C/C1=C/[C@H](O)C(C)(C)CCC/C(C)=C/C[C@H]1OC(=O)c1ccc(O)cc1 [Juniferdin, juniferdin]
6 (4) ^* %

// lookup PDI1 activity relative to mock for CC[C@H](C)[C@H](N)C1=N[C@H](C(=O)N[C@@H](CC(C)C)C(=O)N[C@H](CCC(=O)O)C(=O)N[C@H](C(=O)N[C@H]2CCCCNC(=O)[C@H](CC(N)=O)NC(=O)[C@@H](CC(=O)O)NC(=O)[C@H](Cc3cnc[nH]3)NC(=O)[C@@H](Cc3ccccc3)NC(=O)[C@H]([C@@H](C)CC)NC(=O)[C@@H](CCCN)NC2=O)[C@@H](C)CC)CS1 [Bacitracin A, bacitracin A] ({Ileψ(thiazoline)Cys}-L[dE]IK[dOrn]I[dF]H[dD]N; lactam 4-C)
53 (12) ^* %

// lookup PDI1 activity relative to mock for CC(C)(C)N([O])C(C)(C)C [Di-tert-butyl nitroxide (DTBN), Di-tert-butyl nitroxide]
25 (9) ^* %

// lookup PDI1 activity relative to mock for O=c1c(O[C@@H]2O[C@H](CO)[C@@H](O)[C@H](O)[C@H]2O)c(-c2ccc(O)c(O)c2)oc2cc(O)cc(O)c12 [Isoquercetin (IQ), isoquercetin]
13 (8) ^* %

// lookup PDI1 activity relative to mock for CC(=O)Oc1ccccc1C(=O)Nc1ncc([N+](=O)[O-])s1 [NTZ, nitazoxanide]
65 (4) ^* %
